Origin of measurements: paper PMC11214964

molecular target: CB1R (Homo sapiens); assay: cell-based; format: binding
Sequence (P21554 whole entry): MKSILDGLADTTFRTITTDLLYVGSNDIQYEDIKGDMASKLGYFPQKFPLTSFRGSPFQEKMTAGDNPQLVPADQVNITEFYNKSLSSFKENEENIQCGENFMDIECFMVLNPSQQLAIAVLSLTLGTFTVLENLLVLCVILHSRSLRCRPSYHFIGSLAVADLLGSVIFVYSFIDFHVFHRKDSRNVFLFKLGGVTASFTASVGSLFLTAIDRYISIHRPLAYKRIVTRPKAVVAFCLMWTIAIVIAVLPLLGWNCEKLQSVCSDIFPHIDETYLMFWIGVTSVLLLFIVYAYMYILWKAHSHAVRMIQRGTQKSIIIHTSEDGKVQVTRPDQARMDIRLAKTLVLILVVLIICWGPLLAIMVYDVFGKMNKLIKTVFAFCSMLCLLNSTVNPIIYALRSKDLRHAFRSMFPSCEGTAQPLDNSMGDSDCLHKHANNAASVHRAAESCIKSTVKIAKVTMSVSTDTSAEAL
resultType: Ki (nM)

> print(dat)
                                   compound  readoutnumber
1  N#Cc1c(Oc2cccc(OS(=O)(=O)CCCC(F)(F)F)c2)cccc1C(F)(F)F [Compound 29]           18.1
